Each entry below lists one item and its recorded abundance fitness value.
B1: CD2-associated protein, residues 271 to 331; numbered along this chain, Q9Y5K6 (parent)
chain: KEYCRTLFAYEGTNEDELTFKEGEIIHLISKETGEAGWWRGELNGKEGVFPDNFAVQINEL

Variants of: B1
Assay: abundance fitness (aPCA) (normalised: wild type 0, dead -1); higher = more abundant; growth selection in yeast, the domain comes from the species named
Conditions: Homo sapiens
property: abundance fitness

> print(dat)
                                sequencecode  endpointvalue
 1  KEYCRTLFAYEGTNEDSLTFKEGEIIHLISKETGEAGWWRGELNGKEGVFPDNFAVQINEL [E17S]         -0.259
 2  KEYCRTLFAYEGTNEDELTFKEGEIIHLISKETGEAGWWRGELNGKEGVFPDNFAVQINES [L61S]          0.152
 3  KEYCRTLFAYEGTFEDELTFKEGEIIHLISKETGEAGWWRGELNGKEGVFPDNFAVQINEL [N14F]         -0.336
 4  KEYCRTLFAYEGTNEDELTFKEGEIINLISKETGEAGWWRGELNGKEGVFPDNFAVQINEL [H27N]         -0.165
 5  KEYCRTLFAYEGTNEDELTFKEGEIIHLISKETGEAGWWRGELNGKEGVFPDTFAVQINEL [N53T]          0.027
 6  KEYCRTLFAYSGTNEDELTFKEGEIIHLISKETGEAGWWRGELNGKEGVFPDNFAVQINEL [E11S]         -0.237
 7  KEYCRTLFAYEGTNEDELTFKEGEIIHLISKETGEAGWWRGPLNGKEGVFPDNFAVQINEL [E42P]         -0.981
 8  KEYCRTLFAYEGTNEDELTFKEGNIIHLISKETGEAGWWRGELNGKEGVFPDNFAVQINEL [E24N]         -0.824
 9  VEYCRTLFAYEGTNEDELTFKEGEIIHLISKETGEAGWWRGELNGKEGVFPDNFAVQINEL [K1V]         -0.332
10  KEYCRTLFAYEGTNEDELTFKEGEIIHLISKETGEAGWWRGELNGKELVFPDNFAVQINEL [G48L]         -0.753
11  KEYCRTLFAYEGVNEDELTFKEGEIIHLISKETGEAGWWRGELNGKEGVFPDNFAVQINEL [T13V]         -0.083
12  KEYCRTLFAYEGTNEDELTFKEGEIIHLISKETGEAGWWRGELNGKEGVFPDNFANQINEL [V56N]         -0.339
13  KEYCRTLFAYEGTNEDELTFKCGEIIHLISKETGEAGWWRGELNGKEGVFPDNFAVQINEL [E22C]           -0.4
14  KEYCRTLFAYEGTNEDELTFKEGEIIHRISKETGEAGWWRGELNGKEGVFPDNFAVQINEL [L28R]         -0.706
15  KEYCRTLFAYEGTNEDELTFKEGEIIHLISKETGEAGWWRGELNGKEGVFPDNFVVQINEL [A55V]          0.034
16  KEYCRTLFAYEGTNEDELTFKEGEIIHLISKETGEAGWWRGELNGKEGVFPDNFAVQINGL [E60G]          0.013
17  KEYCRTLFAYEGTNEDELTFKEGEIIHLISKETGEAGWWRFELNGKEGVFPDNFAVQINEL [G41F]         -0.949
18  KEYCRTLFAYEGTNEDELTFKEGEIIHLISKETGEAGWWRGELNGKEGVFVDNFAVQINEL [P51V]         -0.974
19  KEYCRTLFAYEGTNEDELTFKEGEIIHLISKETGEAGWWRGELWGKEGVFPDNFAVQINEL [N44W]         -0.568
20  KEYCRTLFAYEGTNEDELTFKEGEIIHLISKCTGEAGWWRGELNGKEGVFPDNFAVQINEL [E32C]         -0.164
21  KEYCRTLFAYEGTNEDELMFKEGEIIHLISKETGEAGWWRGELNGKEGVFPDNFAVQINEL [T19M]         -0.598
22  KEYCRTLFAYEGTNEDELTFKEGEIIHLISKRTGEAGWWRGELNGKEGVFPDNFAVQINEL [E32R]         -0.222
23  KEYCRTLFAYEGTNEDEWTFKEGEIIHLISKETGEAGWWRGELNGKEGVFPDNFAVQINEL [L18W]         -0.792
24  KEYCRTLFAYEGTNEDELTFKEGEIIHLISKETGEAGWWRTELNGKEGVFPDNFAVQINEL [G41T]         -0.636
25  KEYCRTLFAYEGTNEDELTFKEGEIIHLISKETGEAGWWRGELNGKEGVFPDAFAVQINEL [N53A]         -0.003
26  KEYCRTLFAYEGTNEDELTFKEGEIIHLISKITGEAGWWRGELNGKEGVFPDNFAVQINEL [E32I]          -0.18
27  KEYCRTLFAYEGTNIDELTFKEGEIIHLISKETGEAGWWRGELNGKEGVFPDNFAVQINEL [E15I]         -0.281
28  KEYCRTLFAYEGTNEDELTFKEGEIIHLISKETGEAGWWRGELNGKEGVKPDNFAVQINEL [F50K]         -0.993
29  KEYCRTLFAYEGTNEDELTFKEGEIIHLISKETGELGWWRGELNGKEGVFPDNFAVQINEL [A36L]         -0.305
30  KEYCRTLFAYEGTNEDELTFKEGEIIHLISKETGEAGWWRGELVGKEGVFPDNFAVQINEL [N44V]         -0.791
31  KEYARTLFAYEGTNEDELTFKEGEIIHLISKETGEAGWWRGELNGKEGVFPDNFAVQINEL [C4A]         -0.591
32  KEYCRTLFAYEGTNEDELTFKEGEIIHLISKETGRAGWWRGELNGKEGVFPDNFAVQINEL [E35R]          0.034
33  KEYCRTLFAYEGTNEDELTFKEGEIIHLNSKETGEAGWWRGELNGKEGVFPDNFAVQINEL [I29N]         -0.433
34  KEYCRTLFAYEGTNEDELTFKEGEIIHLITKETGEAGWWRGELNGKEGVFPDNFAVQINEL [S30T]          0.023
35  KEYCRTLFAYEGTNEDELTFKEGEIIHLISKETGEAGWWRGELNGKEGVFPDWFAVQINEL [N53W]         -0.355
36  KEYCRTLFAYEGTNEDELTFKEGEIIHLISKETGEAGWWRGELNGKEGVFPDNFAVRINEL [Q57R]         -0.155
37  KEYCRTLFAYEGTNEDELTFKEGEEIHLISKETGEAGWWRGELNGKEGVFPDNFAVQINEL [I25E]         -0.471
38  KEYCRTLFAYEGTNDDELTFKEGEIIHLISKETGEAGWWRGELNGKEGVFPDNFAVQINEL [E15D]          0.027
39  KEYCRTLFAYEGTNEDELTFKEGEIIHLISKETGEAGWWRGELNGKEGVFPDNFAVQINEC [L61C]          0.275
40  KEYCRTLFAYEGTNEDELTFIEGEIIHLISKETGEAGWWRGELNGKEGVFPDNFAVQINEL [K21I]         -0.265
41  KEYCRTLFAYEGTNEDELTFKENEIIHLISKETGEAGWWRGELNGKEGVFPDNFAVQINEL [G23N]         -0.106
42  KEYCRTLFAYEGTNEDELTFKEGEIIHLISKETGEMGWWRGELNGKEGVFPDNFAVQINEL [A36M]          -0.18
43  KEYCRTLFAYEGTNEDELTFKEGEIIHLISKETGEAGWWRGELNGKEGVFPDNFTVQINEL [A55T]         -0.149
44  KEYCRTLFAYEGTNEDELTFKEGEIIHLISKETGEAGWWNGELNGKEGVFPDNFAVQINEL [R40N]         -0.706
45  KEYCRTLFAYEGTNEDELTFKEGEIIHLISKETGEAGWWRGELNGKEGVFPDNFIVQINEL [A55I]         -0.274
46  KEYCRTLFAYECTNEDELTFKEGEIIHLISKETGEAGWWRGELNGKEGVFPDNFAVQINEL [G12C]         -0.329
